Recorded values, source patent US10670605B2.

- ASSAY TARGET: cysteines in MDA-MB-231 and Ramos cells (Homo sapiens)
- ASSAY METHOD TEXT: Competitive isoTOP-ABPP in situ (fragment-treated cells)
- Type: cell-based
- CONDITIONS USED: 200 μM, insitu, 231
Provide the recorded isoTOP-ABPP ratio Q9ULV4_C420 for the entries that follow.
Answers are plain numbers.

Here is how some compounds turned out for isoTOP-ABPP ratio Q9ULV4_C420.
O=C(CCl)NC12CC3CC(CC(C3)C1)C2: 1.3
CC1CCc2ccccc2N1C(=O)CCl (stereo not drawn): 3.2
CC(C)CCOCCNC(=O)CCl: 0.8

Go through the list and state isoTOP-ABPP ratio Q9ULV4_C420 for each entry.
1. COc1ccccc1OCCNC(=O)CCl
2. Cc1ccc(C=C(C#N)C(=O)NCCN2CCOCC2)cc1
3. O=C(CCl)NCCc1c[nH]c2ccccc12

### Response
1: 0.7; 2: 0.8; 3: 1.1

----------
For each record, write down the corresponding isoTOP-ABPP ratio (reactivity profile), Q99873_C109.
- ASSAY TARGET: PRMT1 C109 (Q99873) (Homo sapiens, UniProt Q99873)
- Sequence (Q99873 whole entry): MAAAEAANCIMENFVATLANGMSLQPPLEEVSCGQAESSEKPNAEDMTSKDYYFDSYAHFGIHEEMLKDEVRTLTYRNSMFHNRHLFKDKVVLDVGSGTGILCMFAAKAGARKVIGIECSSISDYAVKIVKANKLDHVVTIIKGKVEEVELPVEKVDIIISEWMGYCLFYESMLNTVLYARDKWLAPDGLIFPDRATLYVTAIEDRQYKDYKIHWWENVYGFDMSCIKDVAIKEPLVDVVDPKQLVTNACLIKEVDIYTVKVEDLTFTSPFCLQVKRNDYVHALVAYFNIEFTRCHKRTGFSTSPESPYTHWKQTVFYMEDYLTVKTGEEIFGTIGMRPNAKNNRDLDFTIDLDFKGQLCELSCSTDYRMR
- ASSAY METHOD TEXT: Competitive isoTOP-ABPP, cell lysates
- Assay type: binding
- CONDITIONS USED: 500 μm in-vitro ramos_231
Numbers only.

Solved entries:
O=C(CCl)N1CCC(C(O)(c2ccccc2)c2ccccc2)CC1: 1.9
CC(Cl)C(=O)Nc1cc(C(F)(F)F)cc(C(F)(F)F)c1 (stereo not shown): 1.0
O=C(CCl)N1CCOCC1: 1.0
COc1ccccc1OCCNC(=O)CCl: 0.8
O=C(CCl)N1CCN(CC(=O)N2CCOCC2)CC1: 1.0

Provide the reported isoTOP-ABPP ratio (reactivity profile), Q99873_C109 of each entry below, same order.
1. O=C(CCl)NC12CC3CC(CC(C3)C1)C2
2. N#C/C(=C\c1cc(C(F)(F)F)cc(C(F)(F)F)c1)C(N)=O

### Response
1.1
0.8

----------
Assign isoTOP-ABPP reactivity profile ratio, Q16822_C306 to each entry below.
- ASSAY TARGET: PCK2 C306 (Q16822) (Homo sapiens, UniProt Q16822)
- Sequence (Q16822 33-640): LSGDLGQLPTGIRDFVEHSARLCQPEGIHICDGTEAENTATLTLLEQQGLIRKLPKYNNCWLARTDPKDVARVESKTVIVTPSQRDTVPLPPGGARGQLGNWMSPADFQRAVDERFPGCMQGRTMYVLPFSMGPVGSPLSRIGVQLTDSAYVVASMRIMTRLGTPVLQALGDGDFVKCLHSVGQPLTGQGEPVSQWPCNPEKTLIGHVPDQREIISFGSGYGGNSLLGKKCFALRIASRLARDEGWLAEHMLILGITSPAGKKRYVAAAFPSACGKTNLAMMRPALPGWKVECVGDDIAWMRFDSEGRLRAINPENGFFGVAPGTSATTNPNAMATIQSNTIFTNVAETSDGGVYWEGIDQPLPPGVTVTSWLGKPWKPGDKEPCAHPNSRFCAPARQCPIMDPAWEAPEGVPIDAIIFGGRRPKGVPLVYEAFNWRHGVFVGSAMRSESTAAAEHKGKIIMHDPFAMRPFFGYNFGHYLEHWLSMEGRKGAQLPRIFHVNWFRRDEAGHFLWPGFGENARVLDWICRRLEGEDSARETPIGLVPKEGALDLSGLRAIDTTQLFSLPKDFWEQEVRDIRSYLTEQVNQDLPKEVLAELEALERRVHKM
- ASSAY METHOD TEXT: Competitive isoTOP-ABPP, cell lysates
- Format: binding
- CONDITIONS USED: 500 μm, in-vitro_ramos_231
Give bare numbers.

See these solved cases before continuing.
COc1cc(NC(=O)CCl)cc(OC)c1 [compound 43]: 3.3
C=CC(=O)N1CCC(Cc2ccccc2)CC1 [compound 53]: 1.3
C=CC(=O)N(c1ccccc1)C1CCCCC1 [compound 46]: 0.9
O=C(CCl)Nc1ccc(-c2ccccc2)cc1 [compound 52]: 1.3
O=C(CCl)N1CCc2cc(Br)ccc21 [compound 50]: 2.7

GET /values?item= CC1CCc2ccccc2N1C(=O)CCl (stereo not drawn) [compound 45] &system= PCK2 C306 (Q16822) (Homo sapiens, UniProt Q16822) returns isoTOP-ABPP reactivity profile ratio, Q16822_C306: 3.3

----------
- ASSAY TARGET: cysteines in MDA-MB-231 and Ramos cells (Homo sapiens)
- ASSAY METHOD TEXT: Competitive isoTOP-ABPP in situ (fragment-treated cells)
- Assay type: cell-based
- CONDITIONS USED: 200 μM, insitu, ramos
Could you please report measured isoTOP-ABPP ratio P52597_C267 for the items listed next?
Give bare numbers.

Some compounds with recorded isoTOP-ABPP ratio P52597_C267:
O=C(CCl)N1CCN(S(=O)(=O)c2ccccc2F)CC1 [compound 10]: 2.4
C=CC(=O)N(Cc1cccnc1)c1cc(C(F)(F)F)cc(C(F)(F)F)c1 [compound 31]: 1.3
O=C(CCl)N1CCN(CC(=O)N2CCOCC2)CC1 [compound 29]: 1.2

GET /value?item= O=C(CCl)NCCc1c[nH]c2ccccc12 [compound 13] &field=isoTOP-ABPP ratio P52597_C267 returns 1.3
